Data origin, for the record: PubChem BioAssay (NCI)

# Test system: SK-MEL-5 melanoma
# test_summary: NCI-60 one-dose screen, 48 h (100 = growth as untreated, 0 = no growth, -100 = all killed)
# measurement_conditions: 10 µM unless noted
Compounds without any hit were thinned out: in the full panel of roughly 83,000, 20% have a hit.
outcome_measure: growth (%)
Answers are plain numbers, in %.

compound	study_system	growth, %
C=COCCCCCCCCCCCCCCCCCC	SK-MEL-5 melanoma	112
CN(C)c1ccc(C(=O)c2ccc(N(C)C)c(N)c2)cc1N	SK-MEL-5 melanoma	3.25
N=C(N)c1ccc(-c2ccc(-c3cc(F)cc(F)c3)o2)nc1	SK-MEL-5 melanoma	88.7
C=C(C)[C@@H]1CC[C@]2(C(=O)NNC(=O)c3cccnc3)CC[C@]3(C)[C@H](CC[C@@H]4[C@@]5(C)CCCNC(C)(C)[C@@H]5CC[C@]43C)[C@@H]12	SK-MEL-5 melanoma	74.4
O=C(NC(Cc1cn(Cc2ccccc2)cn1)C(=O)O)OCC1c2ccccc2-c2ccccc21 (stereo not given)	SK-MEL-5 melanoma	103
COc1cccc(-c2nn(-c3ccccc3)cc2-c2ccnc(NCCCN)c2)c1	SK-MEL-5 melanoma	28.5
CC(=O)c1c(C)[nH]c(-c2nc3ccc(N4CCN(C)CC4)cc3[nH]2)c1-c1ccc2c(c1)OCCO2	SK-MEL-5 melanoma	26.1
Cc1cc(C=O)c(C)c2c1[nH]c1ccccc12	SK-MEL-5 melanoma	112

# per-item lookup of growth; items listed below
1. COc1c(N)c2c(c([N+](=O)[O-])c1OC)C(=O)OC2
2. Cc1ccsc1-c1ccc2c(c1)COC2(CCCN(C)C)c1ccc(F)cc1 (stereo not given)

stdout:
1: 113; 2: 0.45

###

# System: UACC-62 melanoma
# test_summary: NCI-60 one-dose screen, 48 h (100 = growth as untreated, 0 = no growth, -100 = all killed)
# measurement_conditions: 10 µM unless noted
Compounds without any hit were thinned out: in the full panel of roughly 83,000, 20% have a hit.
outcome_measure: growth (%)
Give bare numbers, in %.

Example compounds with recorded growth:
compound	study_system	output_unit	assay_result
COc1cc2c(cc1-c1c(C)noc1C)ncc1nc(C3CCCCC3)n([C@@H](C)COC(F)F)c12	UACC-62 melanoma	%	21.9
Cc1ccc2c(c1)c(-c1nc(-c3c[nH]c4ncccc34)cs1)cn2C	UACC-62 melanoma	%	94.5
CC1(C)CC[C@]2(C(=O)Nc3ccccn3)CC[C@]3(C)C(=CC[C@@H]4[C@@]5(C)C/C(=C/c6ccncc6)C(=O)C(C)(C)[C@@H]5CC[C@]43C)[C@@H]2C1	UACC-62 melanoma	%	23.9
CC1=CC(=O)N(c2cccc3c(N4C(=O)C=C(C)C4=O)cccc23)C1=O	UACC-62 melanoma	%	94.5
Cn1cc(-c2nc(-c3cn(C)c4ncccc34)cs2)c2cc(F)ccc21	UACC-62 melanoma	%	41.7

# per-item lookup of growth; items listed below
1. Nc1c2c(nc3ccc(Cl)cc13)CC(c1ccc(O)cc1)CC2=O (centres undefined)
2. O=C1c2cc3c(cc2-c2c1c1ccc(F)cc1c(=O)n2CCCN1CCOCC1)OCO3
3. O=C1/C(=C\c2ccc(Br)o2)SC(=S)N1CCc1ccc(O)cc1
4. CCN1CCN(C(=O)[C@@]2(C)CC[C@]3(C)CC[C@]4(C)C(=CC(=O)[C@@H]5[C@@]6(C)CC[C@H](OC7C[C@@H](O)[C@@H](O)C(C)O7)C(C)(C)[C@@H]6CC[C@]54C)[C@@H]3C2)CC1 (some centres undefined)

stdout:
1: 32.8; 2: 13.3; 3: 64; 4: -69.3
